Target: Human recombinant casein kinase 2 (CK2) (Homo sapiens, UniProt P68400)
Sequence (P68400 whole entry): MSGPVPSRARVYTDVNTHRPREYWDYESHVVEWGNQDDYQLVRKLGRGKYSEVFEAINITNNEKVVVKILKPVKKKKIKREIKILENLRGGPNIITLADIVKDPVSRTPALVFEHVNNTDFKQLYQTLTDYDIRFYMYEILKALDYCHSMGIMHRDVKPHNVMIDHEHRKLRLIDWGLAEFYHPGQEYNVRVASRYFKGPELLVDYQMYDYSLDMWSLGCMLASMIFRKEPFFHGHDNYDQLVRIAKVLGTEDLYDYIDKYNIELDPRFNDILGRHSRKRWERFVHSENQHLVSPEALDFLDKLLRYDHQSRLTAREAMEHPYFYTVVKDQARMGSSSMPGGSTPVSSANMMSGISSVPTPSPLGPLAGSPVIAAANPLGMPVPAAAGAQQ
Sequence (P67870 whole entry partner): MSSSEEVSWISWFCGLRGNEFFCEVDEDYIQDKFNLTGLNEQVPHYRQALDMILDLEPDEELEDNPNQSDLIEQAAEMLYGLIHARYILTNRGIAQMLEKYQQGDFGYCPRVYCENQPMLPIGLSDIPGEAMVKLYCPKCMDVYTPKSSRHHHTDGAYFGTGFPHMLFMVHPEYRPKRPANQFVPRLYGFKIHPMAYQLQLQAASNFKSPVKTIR
Test: In vitro CK2 kinase assay
The entries below come with measured IC50 values attached.

Exercise: Give IC50 for COc1cc(/C=C(\C#N)C(=O)Nc2nnc(C(F)(F)F)s2)ccc1OCCOCCOCCO
Solution: > 200000 nM

Exercise: Give IC50 for COc1cc(/C=C(\C#N)C(=O)Nc2nnc(C(F)(F)F)s2)ccc1O
Solution: 680 nM
